Answer each item with its documented growth.
# System: RXF 393 renal
# METHOD NOTES: NCI-60 one-dose screen, 48 h (100 = growth as untreated, 0 = no growth, -100 = all killed)
# EXPERIMENTAL PARAMETERS: 10 µM unless noted
This is part of a sample that, as a whole, favours compounds with a hit. Of some 83,000 tested, about 20% had one in any assay.
Kindly provide the numeric value in % only, without the unit symbol.

Input: What growth value was documented for this compound, "COc1cc2ncnc(Nc3ccc(S(=O)(=O)Nc4cc(C)on4)cc3)c2cc1OCCCN1CCOCC1" ?
Output: 102

Input: Again, but for "Oc1ccc(C(c2ccc(O)cc2)c2ccc(Cl)cn2)cc1"
Output: -57

Input: Let us now turn to "COc1cc2c(cc1OC)CC[N+](CCC[N+](C)(C)C)=C2"
Output: 113

Input: Another: "O=C1N/C(=N/N=C(c2ccccc2)c2ccccc2)S/C1=C\c1ccc(Br)cc1"
Output: 107

Input: Also check "CC(=O)CC(=O)c1ccccc1.[Cu+2]"
Output: 125

Input: Item: COc1cc2c(c(OC)c1OC)CCC(c1cccc(NC(=O)c3cccc(Cl)c3)c1)O2 (stereo not given)
Output: 96

Input: Same read-out for "COc1ccc(C2=C/C(=C\c3ccccc3O)C(=O)N2Cc2ccccc2)cc1" ?
Output: 76.2

Input: Try this compound too: CCOC(=O)CC1CSC(N/N=C(/C)c2cccc(C(F)(F)F)c2)=N1 (stereo not given)
Output: 109

Input: Now consider "C[C@@H]1N=C(c2ccc(Cl)cc2Cl)Nc2nc3ccccn3c2C1=O" and answer again.
Output: 80.2

Input: Next compound up: "CC(=O)Cc1nsc(NC(=O)c2cc(-c3cc(Cl)ccc3Cl)oc2C)n1"
Output: 103
